Target: PDE1C (Homo sapiens, UniProt Q14123)
Sequence (Q14123 whole entry): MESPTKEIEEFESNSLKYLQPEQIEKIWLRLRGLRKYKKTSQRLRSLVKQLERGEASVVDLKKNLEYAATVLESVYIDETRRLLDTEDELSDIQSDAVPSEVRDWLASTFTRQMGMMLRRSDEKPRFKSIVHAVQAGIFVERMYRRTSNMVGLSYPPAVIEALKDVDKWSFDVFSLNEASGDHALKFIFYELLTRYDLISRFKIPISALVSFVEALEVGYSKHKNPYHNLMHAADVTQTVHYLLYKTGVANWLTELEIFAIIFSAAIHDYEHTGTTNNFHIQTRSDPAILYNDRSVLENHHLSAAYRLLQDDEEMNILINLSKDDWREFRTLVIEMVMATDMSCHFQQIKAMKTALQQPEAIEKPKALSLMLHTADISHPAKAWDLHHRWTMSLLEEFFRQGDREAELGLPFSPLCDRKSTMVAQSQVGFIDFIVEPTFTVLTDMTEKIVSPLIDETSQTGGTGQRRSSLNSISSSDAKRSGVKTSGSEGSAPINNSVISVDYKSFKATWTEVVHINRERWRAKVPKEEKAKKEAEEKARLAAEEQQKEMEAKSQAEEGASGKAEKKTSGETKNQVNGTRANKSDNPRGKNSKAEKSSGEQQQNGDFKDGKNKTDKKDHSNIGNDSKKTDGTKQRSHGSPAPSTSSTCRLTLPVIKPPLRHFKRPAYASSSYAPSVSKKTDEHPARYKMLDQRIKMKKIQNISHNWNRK
// classify: if (IC50 < 900 nM) true else false

Sample answers from the record:
>>> group_label("COc1ccc2c(N(C)[C@@H]3CCOC3)ncnc2c1OC (single isomer, unassigned) [4 Stereoisomer 1]")
"true"
>>> group_label("COc1ccc2c(NC3(C)CCOC3)ncnc2c1OC (single isomer, unassigned) [6 Stereoisomer 2]")
"true"
>>> group_label("COc1ccc2c(N(C)[C@H]3CCOC3)ncnc2c1OC (single isomer, unassigned) [4 Stereoisomer 2]")
"true"
>>> group_label("COc1ccc2c(N(C)C3CCOC3C)ncnc2c1OC (single isomer, unassigned) [22 Stereoisomer 3]")
"false"
>>> group_label("COc1ccc2c(N(C)C3CCOC3C)ncnc2c1OC (single isomer, unassigned) [22 Stereoisomer 4]")
"true"

Read the next record carefully.
Regarding COc1ccc2c(NC3(C)CCOC3C)ncnc2c1OC (single isomer, unassigned) [5 Stereoisomer 1] , kindly confirm whether its IC50 is beneath 900 nM.
false
